Entries annotated with measured Index 1 (Relative Migration divided by the Average 157.5), HUVEC migration assay
assayed.system: c-Met protein receptors on HUVEC (human, UniProt P08581 25-1390)
Sequence (P08581 25-1390): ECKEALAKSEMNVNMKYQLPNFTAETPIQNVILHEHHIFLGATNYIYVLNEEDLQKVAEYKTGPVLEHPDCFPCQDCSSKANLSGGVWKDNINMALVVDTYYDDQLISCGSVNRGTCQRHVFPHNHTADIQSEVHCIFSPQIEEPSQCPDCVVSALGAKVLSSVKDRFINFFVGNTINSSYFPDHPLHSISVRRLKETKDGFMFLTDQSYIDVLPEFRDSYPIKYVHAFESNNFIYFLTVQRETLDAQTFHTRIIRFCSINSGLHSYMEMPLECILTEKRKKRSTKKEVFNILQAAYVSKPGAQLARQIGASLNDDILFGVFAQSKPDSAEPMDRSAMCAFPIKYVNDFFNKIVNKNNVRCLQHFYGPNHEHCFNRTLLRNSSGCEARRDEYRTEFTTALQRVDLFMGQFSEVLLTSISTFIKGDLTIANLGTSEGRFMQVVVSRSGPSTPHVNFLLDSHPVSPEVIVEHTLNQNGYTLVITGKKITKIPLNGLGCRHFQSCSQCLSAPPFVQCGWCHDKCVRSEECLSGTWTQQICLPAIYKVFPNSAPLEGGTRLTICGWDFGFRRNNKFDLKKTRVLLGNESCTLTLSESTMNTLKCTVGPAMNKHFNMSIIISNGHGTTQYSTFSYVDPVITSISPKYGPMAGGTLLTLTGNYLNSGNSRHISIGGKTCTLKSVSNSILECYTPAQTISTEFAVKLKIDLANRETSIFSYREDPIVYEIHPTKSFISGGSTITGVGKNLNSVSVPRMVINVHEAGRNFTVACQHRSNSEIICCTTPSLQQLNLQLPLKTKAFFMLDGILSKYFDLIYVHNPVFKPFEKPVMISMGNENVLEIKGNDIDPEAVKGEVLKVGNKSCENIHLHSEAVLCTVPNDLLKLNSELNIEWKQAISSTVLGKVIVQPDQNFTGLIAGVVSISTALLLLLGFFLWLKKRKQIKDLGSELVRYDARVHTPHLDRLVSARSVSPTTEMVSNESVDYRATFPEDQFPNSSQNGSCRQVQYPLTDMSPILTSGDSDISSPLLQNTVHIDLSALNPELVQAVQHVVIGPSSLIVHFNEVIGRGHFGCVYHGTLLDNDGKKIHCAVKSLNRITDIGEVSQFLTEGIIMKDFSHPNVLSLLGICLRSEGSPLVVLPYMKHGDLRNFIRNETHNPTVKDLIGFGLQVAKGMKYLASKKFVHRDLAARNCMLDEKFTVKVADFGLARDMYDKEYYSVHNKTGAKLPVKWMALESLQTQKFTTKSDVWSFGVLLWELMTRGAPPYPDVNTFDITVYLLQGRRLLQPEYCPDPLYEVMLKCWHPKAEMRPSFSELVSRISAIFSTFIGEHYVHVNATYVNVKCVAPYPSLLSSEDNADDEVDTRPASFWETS
test: cell-based or functional assay
reported.property: Index 1 (Relative Migration divided by the Average 157.5), HUVEC migration assay

- binder: "VH2/Vk0 (antibody, IgG1, V domains shown, Full IgG1/kappa expressed in HEK 293 EBNA cells) VH: EVQLVQSGAEVKKPGESLKISCKGSGYSFPTHWITWVRQMPGKGLEWMGTIDPTDSYNFYGPSFQGQVTISADKSISTAYLQWSSLKASDTAMYYCARDGNYYDSRGYYYDTFDMWGQGTLVTVSS VL: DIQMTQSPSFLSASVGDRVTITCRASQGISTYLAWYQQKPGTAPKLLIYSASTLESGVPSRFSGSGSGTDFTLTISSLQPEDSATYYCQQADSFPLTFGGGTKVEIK"
  recorded.measurement: 0.993
- binder: "VH4/Vk5 (antibody, IgG1, V domains shown, Full IgG1/kappa expressed in HEK 293 EBNA cells) VH: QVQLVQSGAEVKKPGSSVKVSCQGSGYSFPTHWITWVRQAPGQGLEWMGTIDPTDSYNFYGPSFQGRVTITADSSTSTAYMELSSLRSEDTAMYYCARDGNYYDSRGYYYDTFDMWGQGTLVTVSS VL: EIVLTQSPGTLSLSPGERATLSCRASQGISTYLAWYQQKPGQAPRLLIYSASTLESGIPDRFSGSGSGTDFTLTISRLEPEDFATYYCQQADSFPLTFGGGTKVEIK"
  recorded.measurement: 1.09
- binder: "VH3/Vk2 (antibody, IgG1, V domains shown, Full IgG1/kappa expressed in HEK 293 EBNA cells) VH: QVQLVQSGAEVKKPGSSVKVSCQGSGYSFPTHWITWVRQAPGQGLEWMGTIDPTDSYNFYGPSFQGRVTITADSSTSTAYLQWSSLKASDTAMYYCARDGNYYDSRGYYYDTFDMWGQGTLVTVSS VL: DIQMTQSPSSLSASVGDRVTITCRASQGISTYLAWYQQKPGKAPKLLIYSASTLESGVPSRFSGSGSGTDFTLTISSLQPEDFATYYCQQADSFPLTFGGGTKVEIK"
  recorded.measurement: 1.04
